Just for reference, patent US5807535A is where these values come from.

I'd appreciate it if you could supply tissue uptake at 5 min values for the items below.
# test: Biodistribution of 99mTc complexes in rats
# Type: in vivo, Australian Albino Wistar Rats
# experimental-conditions: rat, stomach, rats, 5 min, read-out: biodistribution stomach
Answers are plain numbers, in %ID/g.

Previously resolved entries follow.
CC(C)(C)c1ccc(O)c(NC(=O)CN(CCN(CC(=O)O)CC(=O)Nc2cc(C(C)(C)C)ccc2O)CC(=O)O)c1	2.71
O=C(O)CN(CCN(CC(=O)O)CC(=O)Nc1ccccc1O)CC(=O)Nc1ccccc1O	0.11
O=C(O)CN(CCN(CC(=O)O)CC(=O)Nc1ccc(Cl)cc1O)CC(=O)Nc1ccc(Cl)cc1O	0.98

The record that follows has no tissue uptake at 5 min shown yet.
Could you share which tissue uptake at 5 min value was measured for Nc1ccc(O)c(NC(=O)CN(CCN(CC(=O)O)CC(=O)Nc2cc(N)ccc2O)CC(=O)O)c1 ?
0.37

---

Kindly state biodistribution kidney for each of the entries shown.
# test: Biodistribution of 67Ga complexes in mice
# Format: in vivo, balb/c mice
# experimental-conditions: 30 min
One number for each entry, in % ID.

O=C(O)CN(CCN(CC(=O)O)CC(=O)Nc1ccccc1O)CC(=O)Nc1ccccc1O	0.57
O=C(O)CN(CCN(CC(=O)O)CC(=O)Nc1ccc(Cl)cc1O)CC(=O)Nc1ccc(Cl)cc1O	0.21
Cc1cc(C)c(O)c(NC(=O)CN(CCN(CC(=O)O)CC(=O)Nc2cc(C)cc(C)c2O)CC(=O)O)c1	0.79

Item under review: CC(C)(C)c1ccc(O)c(NC(=O)CN(CCN(CC(=O)O)CC(=O)Nc2cc(C(C)(C)C)ccc2O)CC(=O)O)c1 . Reported biodistribution kidney?
0.17

---

# test: Biodistribution of 99mTc complexes in rats
# Type: in vivo, Australian Albino Wistar Rats
# experimental-conditions: rat, blood, rats, 30 sec, read-out: biodistribution blood
Threshold rule: tissue uptake at 0.5 min greater than or equal to 3 %ID/g is yes; below that, no.

Worked cases, answers included:
CC(C)(C)c1ccc(O)c(NC(=O)CN(CCN(CC(=O)O)CC(=O)Nc2cc(C(C)(C)C)ccc2O)CC(=O)O)c1 [Compound 4]	yes
Nc1ccc(O)c(NC(=O)CN(CCN(CC(=O)O)CC(=O)Nc2cc(N)ccc2O)CC(=O)O)c1 [Compound 5]	yes

# check: tissue uptake at 0.5 min of O=C(O)CN(CCN(CC(=O)O)CC(=O)Nc1ccc(Cl)cc1O)CC(=O)Nc1ccc(Cl)cc1O [Compound 2] is greater than or equal to 3 %ID/g
no

What would you report for O=C(O)CN(CCN(CC(=O)O)CC(=O)Nc1cc([N+](=O)[O-])ccc1O)CC(=O)Nc1cc([N+](=O)[O-])ccc1O [Compound 3] ?
no

Try this compound too: O=C(O)CN(CCN(CC(=O)O)CC(=O)Nc1ccccc1O)CC(=O)Nc1ccccc1O [Compound 1]
no

---

# test: Biodistribution of 99mTc complexes in mice
# Assay type: in vivo, Balb/c mice
# experimental-conditions: 1 min
endpoint-name: biodistribution blood (% Injected dose)
Answers are plain numbers, in % Injected dose.

Completed entries (count: 3):
CC(C)(C)c1ccc(O)c(NC(=O)CN(CCN(CC(=O)O)CC(=O)Nc2cc(C(C)(C)C)ccc2O)CC(=O)O)c1	34.01
O=C(O)CN(CCN(CC(=O)O)CC(=O)Nc1ccc(Cl)cc1O)CC(=O)Nc1ccc(Cl)cc1O	23.14
O=C(O)CN(CCN(CC(=O)O)CC(=O)Nc1ccccc1O)CC(=O)Nc1ccccc1O	27.09

Turning to the following compound.
Given Cc1cc(C)c(O)c(NC(=O)CN(CCN(CC(=O)O)CC(=O)Nc2cc(C)cc(C)c2O)CC(=O)O)c1 , state its recorded biodistribution blood.
41.63

---

# test: Biodistribution of 99mTc complexes in mice
# Format: in vivo, Balb/c mice
# experimental-conditions: 3 min
What biodistribution urine was measured for each of the following?
One number for each entry, in % Injected dose.

O=C(O)CN(CCN(CC(=O)O)CC(=O)Nc1ccccc1O)CC(=O)Nc1ccccc1O	5.62
CC(C)(C)c1ccc(O)c(NC(=O)CN(CCN(CC(=O)O)CC(=O)Nc2cc(C(C)(C)C)ccc2O)CC(=O)O)c1	0.84
O=C(O)CN(CCN(CC(=O)O)CC(=O)Nc1ccc(Cl)cc1O)CC(=O)Nc1ccc(Cl)cc1O	2.78
Nc1ccc(O)c(NC(=O)CN(CCN(CC(=O)O)CC(=O)Nc2cc(N)ccc2O)CC(=O)O)c1	2.97

Next, consider the following compound.
Item under review: Cc1cc(C)c(O)c(NC(=O)CN(CCN(CC(=O)O)CC(=O)Nc2cc(C)cc(C)c2O)CC(=O)O)c1 . Reported biodistribution urine?
0.81

---

So I've got a bunch of molecules here, and I need their biodistribution skin values.
# test: Biodistribution of 67Ga complexes in mice
# Type: in vivo, balb/c mice
# experimental-conditions: 10 min

O=C(O)CN(CCN(CC(=O)O)CC(=O)Nc1ccc(Cl)cc1O)CC(=O)Nc1ccc(Cl)cc1O [Compound 2]	3.80 % ID
Cc1cc(C)c(O)c(NC(=O)CN(CCN(CC(=O)O)CC(=O)Nc2cc(C)cc(C)c2O)CC(=O)O)c1 [Compound 6]	5.76 % ID
CC(C)(C)c1ccc(O)c(NC(=O)CN(CCN(CC(=O)O)CC(=O)Nc2cc(C(C)(C)C)ccc2O)CC(=O)O)c1 [Compound 4]	2.92 % ID

Could you now consider this next molecule?
Param item = O=C(O)CN(CCN(CC(=O)O)CC(=O)Nc1ccccc1O)CC(=O)Nc1ccccc1O [Compound 1] ; retrieve measured biodistribution skin.
8.47 % ID

---

# test: Biodistribution of 99mTc complexes in mice
# Format: in vivo, Balb/c mice
# experimental-conditions: 3 min
Give measured biodistribution lungs for each item. Keep answers brief.
Answers are plain numbers, in % Injected dose.

CC(C)(C)c1ccc(O)c(NC(=O)CN(CCN(CC(=O)O)CC(=O)Nc2cc(C(C)(C)C)ccc2O)CC(=O)O)c1 [Compound 4]	0.56
O=C(O)CN(CCN(CC(=O)O)CC(=O)Nc1ccccc1O)CC(=O)Nc1ccccc1O [Compound 1]	0.98
O=C(O)CN(CCN(CC(=O)O)CC(=O)Nc1ccc(Cl)cc1O)CC(=O)Nc1ccc(Cl)cc1O [Compound 2]	1.19

In the following, a different compound is considered.
Item Cc1cc(C)c(O)c(NC(=O)CN(CCN(CC(=O)O)CC(=O)Nc2cc(C)cc(C)c2O)CC(=O)O)c1 [Compound 6] has what recorded biodistribution lungs?
0.65

---

# test: Biodistribution of compound No. 6 in mice (Table 6)
# Format: in vivo, Balb/c mice
# experimental-conditions: mouse, spleen, 3 min, read-out: biodistribution spleen
endpoint-name: tissue uptake at 0.05 h (%ID/g)
Give bare numbers, in %ID/g.

Entry under review: Cc1cc(C)c(O)c(NC(=O)CN(CCN(CC(=O)O)CC(=O)Nc2cc(C)cc(C)c2O)CC(=O)O)c1 . Reported tissue uptake at 0.05 h?
2.24

---

# test: Biodistribution of 67Ga complexes in mice
# Type: in vivo, balb/c mice
# experimental-conditions: 30 min
Provide the recorded biodistribution bone for the entries that follow.
Answers are plain numbers, in % ID.

Below, 3 compounds whose answers are already recorded.
O=C(O)CN(CCN(CC(=O)O)CC(=O)Nc1ccc(Cl)cc1O)CC(=O)Nc1ccc(Cl)cc1O [Compound 2]	0.50
Cc1cc(C)c(O)c(NC(=O)CN(CCN(CC(=O)O)CC(=O)Nc2cc(C)cc(C)c2O)CC(=O)O)c1 [Compound 6]	0.34
O=C(O)CN(CCN(CC(=O)O)CC(=O)Nc1ccccc1O)CC(=O)Nc1ccccc1O [Compound 1]	0.50

Now for the compound whose biodistribution bone we want.
Using the record for CC(C)(C)c1ccc(O)c(NC(=O)CN(CCN(CC(=O)O)CC(=O)Nc2cc(C(C)(C)C)ccc2O)CC(=O)O)c1 [Compound 4] , report its biodistribution bone.
0.13

---

# test: Biodistribution of 99mTc complexes in rats
# Assay type: in vivo, Australian Albino Wistar Rats
# experimental-conditions: rat, brain, rats, 10 min, read-out: biodistribution brain
// label = Met if tissue uptake at 10 min is not less than 0.06 %ID/g, otherwise Not met

Example results:
O=C(O)CN(CCN(CC(=O)O)CC(=O)Nc1cc([N+](=O)[O-])ccc1O)CC(=O)Nc1cc([N+](=O)[O-])ccc1O	Not met
O=C(O)CN(CCN(CC(=O)O)CC(=O)Nc1ccccc1O)CC(=O)Nc1ccccc1O	Not met
Nc1ccc(O)c(NC(=O)CN(CCN(CC(=O)O)CC(=O)Nc2cc(N)ccc2O)CC(=O)O)c1	Met

Now examine the next entry.
Could you please find out whether O=C(O)CN(CCN(CC(=O)O)CC(=O)Nc1ccc(Cl)cc1O)CC(=O)Nc1ccc(Cl)cc1O has tissue uptake at 10 min that meets 0.06 %ID/g or exceeds it?
Not met

---

# test: Biodistribution of 99mTc complexes in rats
# Format: in vivo, Australian Albino Wistar Rats
# experimental-conditions: rat, bone, rats, 5 min, read-out: biodistribution bone
# Experimental: A typical method of radiolabelling of the chelator was achieved by dissolving the chelator in a basic solution of saline. The pH was then adjusted to approx. 6 with HCl. Excess stannous chloride was added to the resultant solution followed by one equivalent volume of sodium ^99m TcO4 (10-50 mCi/ml). Final concentration of the chelator was approx. 1 mg/ml. The efficacy of labelling was determined by ITLC-SG. For each product only one main radiochemical species was observed. […]
Kindly state tissue uptake at 5 min for each of the entries shown.
One number for each entry, in %ID/g.

Known results for compounds:
O=C(O)CN(CCN(CC(=O)O)CC(=O)Nc1cc([N+](=O)[O-])ccc1O)CC(=O)Nc1cc([N+](=O)[O-])ccc1O [Compound 3]	0.29
O=C(O)CN(CCN(CC(=O)O)CC(=O)Nc1ccc(Cl)cc1O)CC(=O)Nc1ccc(Cl)cc1O [Compound 2]	0.19
CC(C)(C)c1ccc(O)c(NC(=O)CN(CCN(CC(=O)O)CC(=O)Nc2cc(C(C)(C)C)ccc2O)CC(=O)O)c1 [Compound 4]	0.26
Nc1ccc(O)c(NC(=O)CN(CCN(CC(=O)O)CC(=O)Nc2cc(N)ccc2O)CC(=O)O)c1 [Compound 5]	0.37

Report tissue uptake at 5 min for O=C(O)CN(CCN(CC(=O)O)CC(=O)Nc1ccccc1O)CC(=O)Nc1ccccc1O [Compound 1] please.
0.25
